Experiment: Metabolic stability in mouse liver microsomes assessed as compound remaining at 1 uM measured after 30 mins
Format: ADME
Details: read-out: Stability
Measured Parameter: remaining at 0.5 h, 1 µM (%)
One number for each entry, in %.

>  <Chemical Smiles>
O=C(Cn1cc(-c2ccc(-n3ccnc3)cc2)nn1)Nc1cccc(Cl)c1Cl

>  <Readout Number>
55

$$$$
>  <Chemical Smiles>
Cc1cn(-c2ccc(-c3cn(CC(=O)Nc4cccc(Cl)c4Cl)nn3)cc2F)cn1

>  <Readout Number>
53

$$$$
>  <Chemical Smiles>
COc1cc(-c2cn(CC(=O)Nc3cccc(Cl)c3Cl)nn2)ccc1-n1cnc(C)c1

>  <Readout Number>
44

$$$$
>  <Chemical Smiles>
Cc1nccn1-c1ccc(-c2cn(CC(=O)Nc3cccc(Cl)c3Cl)nn2)cc1

>  <Readout Number>
63

$$$$

Now turn to the next compound.
# query: remaining at 0.5 h, 1 µM of entry Cc1nccn1-c1ccc(-c2cn(CC(=O)Nc3cccc(Cl)c3Cl)nn2)cn1 63
